MEASURED TARGET: Histone deacetylase 2 (Homo sapiens, UniProt Q92769)
Sequence (Q92769 whole entry): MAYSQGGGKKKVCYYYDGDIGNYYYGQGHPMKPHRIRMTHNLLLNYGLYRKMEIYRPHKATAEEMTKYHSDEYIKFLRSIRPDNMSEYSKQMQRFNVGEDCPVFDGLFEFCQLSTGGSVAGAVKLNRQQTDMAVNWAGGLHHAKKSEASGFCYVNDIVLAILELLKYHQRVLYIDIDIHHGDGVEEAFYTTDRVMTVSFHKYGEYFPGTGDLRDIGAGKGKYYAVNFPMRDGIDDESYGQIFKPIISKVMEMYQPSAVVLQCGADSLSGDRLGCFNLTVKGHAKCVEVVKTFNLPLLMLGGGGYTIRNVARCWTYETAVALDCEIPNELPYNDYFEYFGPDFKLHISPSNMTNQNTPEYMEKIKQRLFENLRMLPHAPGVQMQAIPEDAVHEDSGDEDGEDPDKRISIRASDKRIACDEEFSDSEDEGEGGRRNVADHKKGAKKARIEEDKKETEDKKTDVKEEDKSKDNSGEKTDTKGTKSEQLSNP
EXPERIMENT DESCRIPTION: Inhibition of full length recombinant human C-terminal His-tagged HDAC2 expressed in baculovirus infected sf9 cells using Boc-Lys-(Ac)-AMC as substrate preincubated for 15 mins followed by substrate addition measured after 60 mins by fluorescence assay
IC50 values by entry
Reply numerically in nM, unit not repeated.

// below: answered compounds
CCc1cc(-c2ccc(F)cc2)nn1Cc1ccc(C(=O)NO)cc1	391
Cc1ccc(-c2cc(C)nn2Cc2ccc(C(=O)NO)cc2)cc1	76
Cc1ccc(-c2cc(C(F)(F)F)nn2Cc2ccc(C(=O)NO)cc2)cc1	1220

Turning to the following compound.
Param readout= IC50; system= Histone deacetylase 2 (Homo sapiens, UniProt Q92769); entry= CCc1cc(-c2ccc(F)cc2)n(Cc2ccc(C(=O)NO)cc2)n1 ; returns value. 1500

---

MEASURED TARGET: Histone deacetylase 1 (Homo sapiens, UniProt Q13547)
Sequence (Q13547 whole entry): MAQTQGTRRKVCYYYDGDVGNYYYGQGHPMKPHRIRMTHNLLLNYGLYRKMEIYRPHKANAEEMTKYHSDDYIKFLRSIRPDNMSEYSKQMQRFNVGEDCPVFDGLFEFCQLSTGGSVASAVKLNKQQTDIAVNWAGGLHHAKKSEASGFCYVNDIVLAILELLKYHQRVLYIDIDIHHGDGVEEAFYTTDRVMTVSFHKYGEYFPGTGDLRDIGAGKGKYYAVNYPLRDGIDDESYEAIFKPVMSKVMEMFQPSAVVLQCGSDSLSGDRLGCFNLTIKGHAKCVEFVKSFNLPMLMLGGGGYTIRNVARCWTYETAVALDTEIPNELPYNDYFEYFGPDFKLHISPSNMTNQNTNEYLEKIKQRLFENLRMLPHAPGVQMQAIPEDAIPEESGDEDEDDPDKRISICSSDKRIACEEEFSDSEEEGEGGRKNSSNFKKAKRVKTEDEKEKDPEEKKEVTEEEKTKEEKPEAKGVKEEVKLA
EXPERIMENT DESCRIPTION: Inhibition of full length recombinant human C-terminal FLAG/His-tagged HDAC1 expressed in baculovirus infected sf9 cells using Boc-Lys-(Ac)-AMC as substrate preincubated for 15 mins followed by substrate addition measured after 60 mins by fluorescence assay
QUANTITY KIND: pIC50
pIC50 (log units): -log10 of the concentration in mol/L.

// below: answered compounds
Cc1ccc(-c2cc(C)n(Cc3ccc(C(=O)NO)cc3)n2)cc1	6.88
Cc1cc(-c2ccc(F)cc2)nn1Cc1ccc(C(=O)NO)cc1	6.32
O=C(CCCCCNC(=O)c1cc(-c2ccc(F)cc2)[nH]n1)NO	7.18

Quick one: pIC50 for O=C(NO)c1ccc(CNC(=O)c2cc(-c3ccc(F)cc3)[nH]n2)cc1 ? 7.42

Quick check: pIC50 of O=C(NO)c1ccc(Cn2nc(-c3ccc(F)cc3)cc2Cc2ccccc2)cc1 ? 5.73

---

MEASURED TARGET: UniProt:Q9UBN7
Sequence (Q9UBN7 whole entry): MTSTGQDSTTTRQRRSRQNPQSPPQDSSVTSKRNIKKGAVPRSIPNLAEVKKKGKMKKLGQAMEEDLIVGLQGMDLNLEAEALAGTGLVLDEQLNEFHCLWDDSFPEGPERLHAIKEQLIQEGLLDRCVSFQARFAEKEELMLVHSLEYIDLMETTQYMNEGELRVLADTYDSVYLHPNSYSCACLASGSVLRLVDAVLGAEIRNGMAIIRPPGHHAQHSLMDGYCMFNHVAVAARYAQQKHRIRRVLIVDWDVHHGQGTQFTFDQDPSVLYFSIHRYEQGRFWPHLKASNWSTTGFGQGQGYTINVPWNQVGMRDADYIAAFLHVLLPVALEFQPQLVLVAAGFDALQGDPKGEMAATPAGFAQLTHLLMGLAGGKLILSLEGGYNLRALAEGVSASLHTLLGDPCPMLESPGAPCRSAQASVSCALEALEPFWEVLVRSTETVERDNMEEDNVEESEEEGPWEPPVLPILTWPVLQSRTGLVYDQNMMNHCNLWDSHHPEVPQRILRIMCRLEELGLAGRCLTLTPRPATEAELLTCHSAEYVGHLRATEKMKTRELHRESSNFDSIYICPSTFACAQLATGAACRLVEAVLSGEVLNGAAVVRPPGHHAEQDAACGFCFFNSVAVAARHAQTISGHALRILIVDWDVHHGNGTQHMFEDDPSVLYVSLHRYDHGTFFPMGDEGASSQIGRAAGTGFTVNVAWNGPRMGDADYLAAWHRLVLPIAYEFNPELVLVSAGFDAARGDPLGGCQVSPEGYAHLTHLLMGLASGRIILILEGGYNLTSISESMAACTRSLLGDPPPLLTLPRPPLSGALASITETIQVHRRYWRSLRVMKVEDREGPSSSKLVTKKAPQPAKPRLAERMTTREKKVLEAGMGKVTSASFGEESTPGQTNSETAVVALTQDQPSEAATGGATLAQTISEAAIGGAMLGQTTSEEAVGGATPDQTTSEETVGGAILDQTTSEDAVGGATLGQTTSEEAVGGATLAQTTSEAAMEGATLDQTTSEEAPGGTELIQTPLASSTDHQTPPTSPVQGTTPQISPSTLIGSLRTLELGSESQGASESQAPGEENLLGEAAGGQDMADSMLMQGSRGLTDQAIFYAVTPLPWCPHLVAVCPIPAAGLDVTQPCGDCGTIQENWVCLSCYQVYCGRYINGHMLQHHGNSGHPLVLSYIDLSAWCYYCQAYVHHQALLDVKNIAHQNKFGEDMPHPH
EXPERIMENT DESCRIPTION: Inhibition of full length recombinant human N-terminal GST-tagged HDAC6 expressed in baculovirus infected sf9 cells using Boc-Lys-(Ac)-AMC as substrate preincubated for 15 mins followed by substrate addition measured after 60 mins by fluorescence assay
QUANTITY KIND: IC50 (nM)
Answer format: numeric, nM implied, no suffix.

Below, each entry is followed by its recorded IC50 result.
Cc1cc(-c2ccc(F)cc2)n(Cc2ccc(C(=O)NO)cc2)n1	20
Cc1cc(-c2ccc(F)cc2)nn1Cc1ccc(C(=O)NO)cc1	8

For the next question, use this compound.
For the compound shown here, O=C(CCCCCNC(=O)c1cc(-c2ccc(F)cc2)[nH]n1)NO , give the reported IC50. 29

---

This listing pairs compounds with measured IC50.
MEASURED TARGET: Histone deacetylase
EXPERIMENT DESCRIPTION: Inhibition of HDAC in human HeLa nuclear extract using Boc-Lys-(Ac)-AMC as substrate preincubated for 15 mins followed by substrate addition measured after 60 mins by fluorescence assay
Format: protein assay
The reply should be a number in nM, with the unit left off.

Sample records with IC50:
Cc1ccc(-c2cc(C(F)(F)F)nn2-c2ccc(C(=O)NO)cc2)cc1	1139
CCCc1cc(-c2ccc(F)cc2)n(Cc2ccc(C(=O)NO)cc2)n1	3827
Cc1cc(-c2ccc3c(c2)OCO3)n(Cc2ccc(C(=O)NO)cc2)n1	16
O=C(NO)c1ccc(Cn2nc(-c3ccc(F)cc3)cc2Cc2ccccc2)cc1	1028
CCc1cc(-c2ccc(F)cc2)nn1Cc1ccc(C(=O)NO)cc1	165
CCc1cc(-c2ccc(F)cc2)n(Cc2ccc(C(=O)NO)cc2)n1	1792

// moving on: another record for IC50
Can you share its IC50? I mean this compound: Cc1ccc(-c2cc(C(F)(F)F)nn2Cc2ccc(C(=O)NO)cc2)cc1 231

---

MEASURED TARGET: Histone deacetylase 8 (Homo sapiens)
Sequence (Q9BY41 whole entry): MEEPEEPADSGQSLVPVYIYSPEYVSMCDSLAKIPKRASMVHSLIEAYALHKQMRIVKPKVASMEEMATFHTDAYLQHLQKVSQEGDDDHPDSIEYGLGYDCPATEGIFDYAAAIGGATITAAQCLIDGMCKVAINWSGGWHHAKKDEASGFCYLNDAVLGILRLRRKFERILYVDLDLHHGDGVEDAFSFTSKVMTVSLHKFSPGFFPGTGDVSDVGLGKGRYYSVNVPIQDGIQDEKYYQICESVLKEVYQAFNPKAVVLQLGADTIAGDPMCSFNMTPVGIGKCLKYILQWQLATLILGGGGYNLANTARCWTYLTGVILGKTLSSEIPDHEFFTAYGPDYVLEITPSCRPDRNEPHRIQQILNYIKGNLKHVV
EXPERIMENT DESCRIPTION: Inhibition of full length recombinant human C-terminal His-tagged HDAC8 expressed in baculovirus infected sf9 cells using Boc-Lys-(TFA)-AMC as substrate preincubated for 15 mins followed by substrate addition measured after 60 mins by fluorescence assay
QUANTITY KIND: IC50

Field: example entries. Status: answers known.
CCCc1cc(-c2ccc(F)cc2)n(Cc2ccc(C(=O)NO)cc2)n1	> 5 µM
Cc1cc(-c2ccc3c(c2)OCO3)n(Cc2ccc(C(=O)NO)cc2)n1	> 5 µM
O=C(NO)c1ccc(Cn2nc(Cc3ccccc3)cc2-c2ccc(F)cc2)cc1	> 5 µM

Fill in: IC50 of Cc1ccc(-c2cc(C(F)(F)F)nn2CCc2ccc(C(=O)NO)cc2)cc1 is ___ > 5 µM

Sample Cc1cc(-c2ccc(F)cc2)n(Cc2ccc(C(=O)NO)cc2)n1 — what was its IC50? > 5 µM

---

MEASURED TARGET: Histone deacetylase 3/Nuclear receptor corepressor 2 (HDAC3/NCoR2) (Homo sapiens, UniProt O15379)
Sequence (O15379 whole entry, the tested form may be a part): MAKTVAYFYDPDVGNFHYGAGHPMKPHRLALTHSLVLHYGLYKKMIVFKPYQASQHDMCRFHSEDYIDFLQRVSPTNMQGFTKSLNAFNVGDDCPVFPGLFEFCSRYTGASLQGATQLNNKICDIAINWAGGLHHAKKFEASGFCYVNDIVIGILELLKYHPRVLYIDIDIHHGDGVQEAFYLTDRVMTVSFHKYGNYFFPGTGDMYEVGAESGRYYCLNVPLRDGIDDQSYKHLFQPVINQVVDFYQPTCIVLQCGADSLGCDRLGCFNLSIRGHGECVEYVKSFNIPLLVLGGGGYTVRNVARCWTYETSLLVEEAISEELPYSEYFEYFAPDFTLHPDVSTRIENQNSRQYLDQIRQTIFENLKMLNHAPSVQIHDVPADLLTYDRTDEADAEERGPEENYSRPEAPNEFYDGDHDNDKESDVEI
Sequence (Q9Y618 whole entry, further chain, the tested form may be a part): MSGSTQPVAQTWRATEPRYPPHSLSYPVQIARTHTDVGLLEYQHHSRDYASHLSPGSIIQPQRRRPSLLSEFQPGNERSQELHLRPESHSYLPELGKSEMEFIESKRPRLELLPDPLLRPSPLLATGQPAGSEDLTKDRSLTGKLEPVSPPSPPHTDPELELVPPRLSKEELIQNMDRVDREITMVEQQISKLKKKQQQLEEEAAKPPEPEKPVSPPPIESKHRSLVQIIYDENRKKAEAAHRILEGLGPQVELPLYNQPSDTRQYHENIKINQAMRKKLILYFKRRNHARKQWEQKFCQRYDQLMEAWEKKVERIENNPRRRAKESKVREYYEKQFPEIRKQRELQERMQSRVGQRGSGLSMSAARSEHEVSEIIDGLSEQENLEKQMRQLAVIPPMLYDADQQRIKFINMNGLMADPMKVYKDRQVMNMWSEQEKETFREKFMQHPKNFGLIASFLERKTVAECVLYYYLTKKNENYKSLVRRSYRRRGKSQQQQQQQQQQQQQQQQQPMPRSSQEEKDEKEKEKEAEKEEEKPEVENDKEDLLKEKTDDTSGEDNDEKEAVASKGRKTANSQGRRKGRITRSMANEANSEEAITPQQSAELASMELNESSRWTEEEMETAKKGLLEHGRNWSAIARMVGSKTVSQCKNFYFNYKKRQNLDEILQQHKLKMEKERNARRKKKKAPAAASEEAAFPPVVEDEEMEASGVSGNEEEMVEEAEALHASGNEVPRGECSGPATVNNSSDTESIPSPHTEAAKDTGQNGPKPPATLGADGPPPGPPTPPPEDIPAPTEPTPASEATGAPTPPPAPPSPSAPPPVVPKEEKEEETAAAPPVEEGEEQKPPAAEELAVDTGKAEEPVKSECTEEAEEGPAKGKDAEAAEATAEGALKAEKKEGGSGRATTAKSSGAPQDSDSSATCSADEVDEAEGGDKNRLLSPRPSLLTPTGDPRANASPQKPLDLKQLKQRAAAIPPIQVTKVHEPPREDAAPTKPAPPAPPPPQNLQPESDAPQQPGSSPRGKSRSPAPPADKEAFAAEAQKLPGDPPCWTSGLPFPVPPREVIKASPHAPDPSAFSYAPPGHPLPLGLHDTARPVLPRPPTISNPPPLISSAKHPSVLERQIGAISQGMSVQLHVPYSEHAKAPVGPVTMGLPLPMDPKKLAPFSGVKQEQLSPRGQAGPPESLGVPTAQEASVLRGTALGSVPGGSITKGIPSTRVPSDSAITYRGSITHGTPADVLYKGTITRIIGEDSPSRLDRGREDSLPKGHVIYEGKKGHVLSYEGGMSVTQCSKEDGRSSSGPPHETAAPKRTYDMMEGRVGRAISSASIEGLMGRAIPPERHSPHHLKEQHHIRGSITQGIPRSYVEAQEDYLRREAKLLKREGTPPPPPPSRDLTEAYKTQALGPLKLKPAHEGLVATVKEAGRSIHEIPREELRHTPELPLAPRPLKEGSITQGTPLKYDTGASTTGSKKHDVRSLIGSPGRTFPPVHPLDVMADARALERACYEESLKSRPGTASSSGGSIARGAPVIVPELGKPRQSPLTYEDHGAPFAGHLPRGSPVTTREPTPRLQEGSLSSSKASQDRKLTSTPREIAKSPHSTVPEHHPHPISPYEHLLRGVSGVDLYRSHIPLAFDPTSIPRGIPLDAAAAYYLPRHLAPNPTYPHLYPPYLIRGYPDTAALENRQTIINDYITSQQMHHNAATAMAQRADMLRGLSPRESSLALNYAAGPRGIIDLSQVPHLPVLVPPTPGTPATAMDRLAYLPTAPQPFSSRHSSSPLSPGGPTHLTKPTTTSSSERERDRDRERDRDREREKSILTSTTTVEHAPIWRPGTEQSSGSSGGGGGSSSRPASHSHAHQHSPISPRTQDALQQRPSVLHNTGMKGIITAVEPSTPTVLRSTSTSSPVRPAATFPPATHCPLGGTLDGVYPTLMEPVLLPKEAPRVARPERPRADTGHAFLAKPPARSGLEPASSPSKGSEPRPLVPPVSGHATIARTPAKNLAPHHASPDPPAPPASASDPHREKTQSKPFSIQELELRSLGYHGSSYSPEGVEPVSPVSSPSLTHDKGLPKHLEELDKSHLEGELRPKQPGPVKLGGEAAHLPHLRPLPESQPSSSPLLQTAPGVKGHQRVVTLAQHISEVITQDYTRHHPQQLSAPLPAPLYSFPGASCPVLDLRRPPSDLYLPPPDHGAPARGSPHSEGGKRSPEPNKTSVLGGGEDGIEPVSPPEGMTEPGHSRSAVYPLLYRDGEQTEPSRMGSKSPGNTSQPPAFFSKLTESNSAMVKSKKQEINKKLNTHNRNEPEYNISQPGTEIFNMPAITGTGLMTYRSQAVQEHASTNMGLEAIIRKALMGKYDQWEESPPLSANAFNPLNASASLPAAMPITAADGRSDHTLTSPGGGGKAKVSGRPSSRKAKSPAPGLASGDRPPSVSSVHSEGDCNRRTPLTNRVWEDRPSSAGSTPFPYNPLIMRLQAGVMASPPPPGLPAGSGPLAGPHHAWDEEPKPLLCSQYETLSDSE
EXPERIMENT DESCRIPTION: Inhibition of full length recombinant human C-terminal His-tagged HDAC3/N-terminal GST-tagged NCOR2 (395 to 489 residues) expressed in baculovirus infected sf9 cells using Boc-Lys-(Ac)-AMC as substrate preincubated for 15 mins followed by substrate addition measured after 60 mins by fluorescence assay
pIC50: −log10 of the molar value.
Our labelling divides records by pIC50 into ranges: lower bin: < 6; middle bin: ≥ 6 and < 7; upper bin: ≥ 7

O=C(CCNC(=O)c1cc(-c2ccc(F)cc2)[nH]n1)NO	lower bin
CCCc1cc(-c2ccc(F)cc2)n(Cc2ccc(C(=O)NO)cc2)n1	lower bin
Cc1ccc(-c2cc(C(F)(F)F)n(Cc3ccc(C(=O)NO)cc3)n2)cc1	upper bin
CCCc1cc(-c2ccc(F)cc2)nn1Cc1ccc(C(=O)NO)cc1	middle bin

--- query ---
Please classify: Cc1ccc(-c2cc(C)n(Cc3ccc(C(=O)NO)cc3)n2)cc1 upper bin

---

MEASURED TARGET: Histone deacetylase
EXPERIMENT DESCRIPTION: Inhibition of HDAC in human HeLa nuclear extract using Boc-Lys-(Ac)-AMC as substrate preincubated for 15 mins followed by substrate addition measured after 60 mins by fluorescence assay
Assay type: protein assay
// reported IC50 per item
Entry rule: numbers only, all in µM.

These solved cases illustrate the format of a correct answer.
Cc1ccc(-c2cc(C(F)(F)F)n(CCc3ccc(C(=O)NO)cc3)n2)cc1	0.121
Cc1ccc(-c2cc(C(F)(F)F)nn2CCc2ccc(C(=O)NO)cc2)cc1	1.46
Cc1ccc(-c2cc(C)nn2Cc2ccc(C(=O)NO)cc2)cc1	0.022
O=C(CCCCNC(=O)c1cc(-c2ccc(F)cc2)[nH]n1)NO	0.644

Now for the compound whose IC50 we want.
I am curious: what IC50 value has been reported for Cc1cc(-c2ccc(F)cc2)n(Cc2ccc(C(=O)NO)cc2)n1 ? 1.439
